Test system: DU-145 prostate
Experiment: NCI-60 one-dose screen, 48 h
Conditions: 10 µM unless noted
About 83,000 compounds went through this panel and 20% of them were active in at least one assay; those are over-represented in the sample as a whole. Calls of active or inactive are those of the source. Rule for the calls: active = growth percent below 10; inactive = the rest.
In this exercise, the only acceptable responses are true = active, false = inactive

| MOLECULE | LABEL |
| --- | --- |
| Cc1c(Cc2ccccc2)c(=O)oc2c(C)c(OCC(=O)n3nc(C#N)cc3N)ccc12 | false |
| CC(C)OCC1CO1 (stereo not given) | false |
| O=C(NC(=S)NNC(=S)NNc1ccccc1)c1ccccc1 | false |
| CN1CCN(Cc2ccc(NC(=O)c3ccc(C#Cc4c(N)ncc5ccc(F)cc45)cc3)cc2C(F)(F)F)CC1 | true |
| COc1ccc(Cn2cc3c(c2)-c2oncc2CC3)cc1OC | false |

Q: Please indicate how the test categorized O=C(CCl)NC1c2ccccc2Oc2ccccc21 .
Ans: false

Q: Likewise for O=C(Nc1ccccc1)Nc1ccc(Nc2ncnc3sc4c(c23)CCCC4)cc1 ?
Ans: false

Q: What about this molecule? COc1cc2ncnc(-n3ncc4cc(NC(=O)Nc5ccc(Cl)c(C)c5)ccc43)c2cc1OC
Ans: false

Q: Param item: COc1ccc(/C(=C(\c2ccccc2)[N+](=O)[O-])c2ccc(OCCN3CCCC3)cc2)cc1
Ans: false

Q: How about this molecule: O=C(O)c1occ(Cl)c1Cl
Ans: false
